tested on: UMC-11; assay: relative viability (nuclei count vs DMSO), 5 days (fraction); higher = more cells survive; settings: first compound 4 µM
assay endpoint: relative viability
In your answer, state the number alone without any accompanying words.

Input line: Recall and state the measured relative viability for Clc1ccc(Nc2nnc(Cc3ccncc3)c3ccccc23)cc1 [Vatalanib] + N=C(N)NC(=N)NCCc1ccccc1 [Phenformin] (partner 250 µM) .
Output line: 0.333

Input line: Recall and state the measured relative viability for C[C@@H]1CN(CC(=O)Nc2ccc3c(c2)Cc2cccc(-c4cc(=O)cc(N5CCOCC5)o4)c2S3)C[C@H](C)O1 + Cc1cc(Nc2cc(N3CCN(C)CC3)nc(Sc3ccc(NC(=O)C4CC4)cc3)n2)n[nH]1 [Tozasertib] (partner 0.1 µM) .
Output line: 0.199

Input line: Recall and state the measured relative viability for C[C@@H]1CN(CC(=O)Nc2ccc3c(c2)Cc2cccc(-c4cc(=O)cc(N5CCOCC5)o4)c2S3)C[C@H](C)O1 + CCNC(=O)c1noc(-c2cc(C(C)C)c(O)cc2O)c1-c1ccc(CN2CCOCC2)cc1 [Luminespib] (partner 0.01 µM) .
Output line: 0.675

---

system: HCC-15; experiment: relative viability (nuclei count vs DMSO), 5 days (fraction); higher = more cells survive; settings: first compound 0.01 µM
Just a reminder that ties go to label 0: only relative viability strictly below 1 counts as label 1.

Input line: Answer whether the molecule CC(C)Oc1cc(Nc2nc(N[C@@H](C)c3ccc(F)cn3)ncc2Cl)n[nH]1 [AZ23] + Cc1nc(Nc2ncc(C(=O)Nc3c(C)cccc3Cl)s2)cc(N2CCN(CCO)CC2)n1 [Dasatinib] (partner 0.075 µM) has relative viability strictly less than 1
Output line: label 1

Input line: Answer whether the molecule CC(C)Oc1cc(Nc2nc(N[C@@H](C)c3ccc(F)cn3)ncc2Cl)n[nH]1 [AZ23] + C[C@@H](Oc1cc(-c2cnn(C3CCNCC3)c2)cnc1N)c1c(Cl)ccc(F)c1Cl [Crizotinib] (partner 1 µM) has relative viability strictly less than 1
Output line: label 0

Input line: Answer whether the molecule CC(C)Oc1cc(Nc2nc(N[C@@H](C)c3ccc(F)cn3)ncc2Cl)n[nH]1 [AZ23] + Nc1ncn([C@H]2C[C@H](O)[C@@H](CO)O2)c(=O)n1 [Decitabine] (partner 2 µM) has relative viability strictly less than 1
Output line: label 1

Input line: Answer whether the molecule CC(C)Oc1cc(Nc2nc(N[C@@H](C)c3ccc(F)cn3)ncc2Cl)n[nH]1 [AZ23] + Cc1cc(Nc2cc(N3CCN(C)CC3)nc(Sc3ccc(NC(=O)C4CC4)cc3)n2)n[nH]1 [Tozasertib] (partner 0.1 µM) has relative viability strictly less than 1
Output line: label 1

Input line: Answer whether the molecule CC(C)Oc1cc(Nc2nc(N[C@@H](C)c3ccc(F)cn3)ncc2Cl)n[nH]1 [AZ23] + CS(=O)(=O)CCNCc1ccc(-c2ccc3ncnc(Nc4ccc(OCc5cccc(F)c5)c(Cl)c4)c3c2)o1 [Lapatinib] (partner 2 µM) has relative viability strictly less than 1
Output line: label 0

---

test system: PC-3 [JPC-3]; assay: relative viability (nuclei count vs DMSO), 5 days (fraction); higher = more cells survive; conditions: first compound 0.03162 µM
assay endpoint: relative viability
In your answer, state the number alone without any accompanying words.

Input line: Recall and state the measured relative viability for CC(C)Oc1cc(Nc2nc(N[C@@H](C)c3ccc(F)cn3)ncc2Cl)n[nH]1 [AZ23] + NC(=O)Nc1cc(-c2cccc(F)c2)sc1C(=O)N[C@H]1CCCNC1 [AZD7762] (partner 0.2 µM) .
Output line: 0.837

Input line: Recall and state the measured relative viability for CC(C)Oc1cc(Nc2nc(N[C@@H](C)c3ccc(F)cn3)ncc2Cl)n[nH]1 [AZ23] + CC(=O)c1c(C)c2cnc(Nc3ccc(N4CCNCC4)cn3)nc2n(C2CCCC2)c1=O [Palbociclib] (partner 0.5 µM) .
Output line: 0.611

Input line: Recall and state the measured relative viability for CC(C)Oc1cc(Nc2nc(N[C@@H](C)c3ccc(F)cn3)ncc2Cl)n[nH]1 [AZ23] + O=C(CCCCCCC(=O)Nc1ccccc1)NO [Vorinostat] (partner 1 µM) .
Output line: 0.867

Input line: Recall and state the measured relative viability for CC(C)Oc1cc(Nc2nc(N[C@@H](C)c3ccc(F)cn3)ncc2Cl)n[nH]1 [AZ23] + CS(=O)(=O)CCNCc1ccc(-c2ccc3ncnc(Nc4ccc(OCc5cccc(F)c5)c(Cl)c4)c3c2)o1 [Lapatinib] (partner 2 µM) .
Output line: 0.489

Input line: Recall and state the measured relative viability for CC(C)Oc1cc(Nc2nc(N[C@@H](C)c3ccc(F)cn3)ncc2Cl)n[nH]1 [AZ23] + Nc1ncn([C@H]2C[C@H](O)[C@@H](CO)O2)c(=O)n1 [Decitabine] (partner 2 µM) .
Output line: 0.851
